All figures here come from PubChem BioAssay AID1159580.

Reported normalized growth is given for each of the following compounds.
# MEASUREMENT_DESCRIPTION: chemical genetic growth profiling, strain panel (AID 1159580);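 also: tested at 20 µM; growth read once vehicle control cultures reached saturation at 30 °C; 1 = growth at the plate median or of vehicle wells; lower values mean less growth of the strain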
# CONDITIONS_USED: S. cerevisiae deletion strains, growth OD, locus YBR023C, strain chs3, active compounds read low
The whole screen tested about 5,500 compounds, of which about 2,000 (36%) were called active. About 18% were inconclusive and are not listed. Some of the results follow.
Response field accepts a number only; no unit should be typed.

1. O=C(O[C@@H]1Cc2c(O)cc(O)cc2O[C@@H]1c1cc(O)c(=O)c2c(O)c(O)cc([C@H]3Oc4cc(O)cc(O)c4C[C@H]3OC(=O)c3cc(O)c(O)c(O)c3)c2c1)c1cc(O)c(O)c(O)c1	0.43
2. CC/C(=C(/CC)c1ccc(O)cc1)c1ccc(O)cc1	0.984
3. O=c1ccc2cc(OC3OC(CO)C(O)C(O)C3O)c(O)cc2o1 (stereo not given)	0.992
4. C[C@@H]([C@H](O)c1ccccc1)N(C)C	1.01
5. COc1ccc(Cl)cc1C(=O)NCCc1ccc(S(=O)(=O)NC(=O)NC2CCCCC2)cc1	1
6. C=C[C@H]1CN2CC[C@H]1C[C@@H]2[C@@H](OC(=O)OCC)c1ccnc2ccc(OC)cc12	0.997

response.value for `CCc1cc(C(N)=S)ccn1` (field: normalized growth) = 1.02

Entry C[C@]12CCC3c4ccc(OS(=O)(=O)O)cc4CCC3C1CC[C@H]2O (stereo not given in full) — recorded normalized growth = 0.966

Field normalized growth (entry `CC[n+]1c(-c2ccccc2)c2cc(N)ccc2c2ccc(N)cc21` ) reads 0.979

In plain terms, O=C(OC1Cc2c(O)cc(O)cc2OC1c1cc(=O)c(O)c2c(O)c(O)cc(C3Oc4cc(O)cc(O)c4CC3O)c2c1)c1cc(O)c(O)c(O)c1 (stereo not given) has a documented normalized growth of 0.87

Consider COc1ccc2c(c1)CCC1C2CCC2(C)C1C[C@@H](O)C2O (stereo not given in full) . Its measured normalized growth is 0.988

Sure, the documented normalized growth for `C=C(C)[C@H]1COc2cc3oc(=O)ccc3cc2O1` is 0.339

Summary for this compound, `CCOCN(C(=O)CCl)c1c(C)cccc1CC` : normalized growth is 0.98

Value of measured normalized growth for the entry `NC(=O)CN1CCCC1=O` : 0.991

Notebook: `O=C(O[C@@H]1Cc2c(O)cc(O)cc2O[C@@H]1c1cc(O)c(=O)c2c(O)c(O)cc([C@H]3Oc4cc(O)cc(O)c4C[C@H]3O)c2c1)c1cc(O)c(O)c(O)c1` , normalized growth read as 0.457

* * *

# MEASUREMENT_DESCRIPTION: chemical genetic growth profiling, strain panel (AID 1159580)
# CONDITIONS_USED: S. cerevisiae deletion strains, growth OD, locus YEL003W, strain gim4, active compounds read low
Among all 5,500 compounds or so, about 2,000 (36%) were called active. Not shown: some 18% with an inconclusive outcome. The list shows a part of the results.
normalized growth values, listed per item
Please give only the number in your answer, with no unit.

1) CCN[C@@H]1C[C@H](N)[C@@H](O[C@H]2OC(CN)=CC[C@H]2N)[C@H](O)[C@H]1OC1OC[C@](C)(O)[C@H](NC)[C@H]1O (some centres undefined)	0.989
2) CN(C)c1ccc2nc3ccc(=[N+](C)C)cc-3sc2c1	0.974
3) CN[C@@H]1[C@@H](O)C(OC2[C@@H](N)C[C@@H](N)[C@H](O[C@H]3O[C@H](C(C)O)[C@@H](O)[C@H](O)[C@H]3N)[C@H]2O)OC[C@]1(C)O (some centres undefined)	0.982
4) Cc1ccccc1OCC(O)CO (centres undefined)	0.97
5) CC1(C)C(=O)C=C[C@@]2(C)C1C[C@@H](O)[C@]1(C)C2CC[C@@]2(C)[C@H](c3ccoc3)OC(=O)[C@H]3O[C@]321 (some centres undefined)	1
6) CC1(C)O[C@H]2CC(=O)OC[C@]23[C@H]2CC[C@@]4(C)[C@H](c5ccoc5)OC(=O)[C@H]5O[C@]54[C@]2(C)C(=O)C[C@@H]13	0.981
7) CC1(C)C(=O)C=C[C@@]2(C)C1CC(=O)[C@]1(C)C2CC[C@@]2(C)[C@H](c3ccoc3)OC(=O)[C@H]3O[C@]321 (some centres undefined)	0.975
8) NC(N)=NC(=O)c1nc(Cl)c(N)nc1N	1.02
9) CCc1cc(C(N)=S)ccn1	0.998
10) OC1CC2CCCC(C1)N2Cc1ccccc1 (centres undefined)	1

// `NC(=O)CN1CCCC1=O` : normalized growth value = 0.999

GET /value?item= C[C@H]1O[C@H](OC2[C@@H](O)[C@@H](O)C(O)[C@H](O)[C@H]2O)[C@@H](N)C[C@@H]1N=C(N)C(=O)O (some centres undefined) &field=normalized growth returns 0.981

normalized growth measured on C[C@]12C=CC(=O)C=C1CCC1C2[C@@H](O)C[C@@]2(C)C1CC[C@]2(O)C(=O)COP(=O)(O)O (some centres undefined) = 1.01

The molecule identified as CC(=O)O[C@@H]1CC2C(C)(C)C(=O)C=C[C@]2(C)C2CC[C@@]3(C)[C@H](c4ccoc4)OC(=O)[C@H]4O[C@]43[C@@]21C (some centres undefined) registered its normalized growth at 0.95

* * *

# MEASUREMENT_DESCRIPTION: chemical genetic growth profiling, strain panel (AID 1159580);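 also: tested at 20 µM; growth read once vehicle control cultures reached saturation at 30 °C; 1 = growth at the plate median or of vehicle wells; lower values mean less growth of the strain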
# CONDITIONS_USED: S. cerevisiae deletion strains, growth OD, locus YOR329C, strain SCD5, active compounds read low
The campaign covered roughly 5,500 compounds. About 2,000 (36%) were called active. About 18% were inconclusive and are not listed. Some of the results follow.
This listing pairs compounds with measured normalized growth.
Reply: number alone, nothing else.

Reference set, count: 6
1. O/N=C(/c1ccc(Cl)cc1)c1cc2ccccc2o1	0.946
2. Oc1c(Cl)cc(Cl)cc1/C=N\NC(=S)Nc1cc(C(F)(F)F)cc(C(F)(F)F)c1	0.56
3. Cc1c(C)c(C)c(C(O)c2ccccc2)c(C)c1C (configuration not stated)	1
4. Oc1c(Br)cc(Br)cc1C=Nc1ccccn1	0.963
5. CC(NC(=S)N/N=C\c1ccccc1O)c1ccccc1 (configuration not stated)	0.983
6. Oc1c(Br)cc(Br)cc1/C=N\n1cnnc1	0.934

Shift focus to the following entry.
normalized growth in this record for `CC(C)(C)NC(=S)N/N=C\c1ccccc1O` : 0.959

* * *

# MEASUREMENT_DESCRIPTION: chemical genetic growth profiling, strain panel (AID 1159580);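 also: tested at 20 µM; growth read once vehicle control cultures reached saturation at 30 °C; 1 = growth at the plate median or of vehicle wells; lower values mean less growth of the strain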
# CONDITIONS_USED: S. cerevisiae deletion strains, growth OD, locus YGR135W, strain pre9, active compounds read low
Screen size: about 5,500 compounds; about 2,000 (36%) were called active. About 18% were inconclusive and are not listed. The list shows a part of the results.
PROPERTY_NAME: normalized growth

Sample CC1(C)C=CC(=O)[C@@]2(C)C1CC(=O)[C@]1(C)C2CC[C@@]2(C)[C@H](c3ccoc3)OC(=O)C3OC321 (some centres not stated) ; normalized growth observed: 1.03 (inactive)

// normalized growth lookup, compound = `CNC(=O)Oc1cccc2c1OC(C)(C)O2` , result: 0.999 (inactive)

Recorded result, CC1(C)C2CC(=O)[C@]3(C)C(CC[C@@]4(C)[C@H](c5ccoc5)OC(=O)C5OC543)[C@@]2(C)[C@@H](O)C[C@H]1O (some centres not stated) , normalized growth: 1 (inactive)

Quick note, normalized growth for CC1(C)C(=O)C=C[C@@]2(C)C1CC(=O)[C@]1(C)C2CC[C@@]2(C)[C@H](c3ccoc3)OC(=O)[C@H]3O[C@]321 (some centres not stated) landed at 1.05 (inactive)

Form field normalized growth, entry CC1(C)C2CC(=O)[C@]3(C)C(CC[C@@]4(C)[C@H](c5ccoc5)OC(=O)[C@H]5O[C@]543)[C@@]2(C)C(=O)C[C@H]1O (some centres not stated) : 1.01 (inactive)

Value of measured normalized growth for the entry COC(=O)C[C@H]1C(C)(C)C2(Cl)O[C@@]34CC2C(=O)[C@]1(C)C3CC[C@]1(C)C4=CC(=O)O[C@H]1c1ccoc1 (some centres not stated) : 0.976 (inactive)

normalized growth reading for `CC1(C)O[C@H]2CC(=O)OC[C@]23[C@H]2CC[C@@]4(C)[C@H](c5ccoc5)OC(=O)[C@H]5O[C@]54[C@]2(C)C(=O)C[C@@H]13` : 1 (inactive)

* * *

# MEASUREMENT_DESCRIPTION: chemical genetic growth profiling, strain panel (AID 1159580);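 also: tested at 20 µM; growth read once vehicle control cultures reached saturation at 30 °C; 1 = growth at the plate median or of vehicle wells; lower values mean less growth of the strain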
# CONDITIONS_USED: S. cerevisiae deletion strains, growth OD, locus YDR388W, active compounds read low
The campaign covered roughly 5,500 compounds. About 2,000 (36%) were called active. Inconclusive results (about 18%) are left out. This is one part of the list.
PROPERTY_NAME: normalized growth
Answer field: number only, no words.

// solved cases for normalized growth follow
1) CC(C)[N+](C)(CCC(C(N)=O)(c1ccccc1)c1ccccc1)C(C)C	1
2) CC1CC[C@@]2(OC1)O[C@H]1CC3C4CC[C@@H]5CC(=O)CC[C@]5(C)C4CC[C@]3(C)[C@H]1[C@@H]2C (stereo partly drawn)	0.993
3) CC1CC[C@@]2(OC1)O[C@H]1CC3C4CC[C@@H]5C[C@@H](O)CC[C@]5(C)C4CC[C@]3(C)[C@H]1[C@@H]2C (stereo partly drawn)	1.02
4) CC1CC[C@]2(NC1)O[C@H]1CC3C4CC[C@H]5C[C@@H](O)CC[C@]5(C)C4CC[C@]3(C)[C@H]1[C@@H]2C (stereo partly drawn)	0.0652
5) C[C@@H]1CC[C@@]2(NC1)O[C@H]1C[C@H]3C4CC=C5C[C@@H](O)CC[C@]5(C)C4CC[C@]3(C)C1[C@@H]2C (stereo partly drawn)	0.0688

The recorded normalized growth for entry CC1CCC2(OC1)OC1CC3C4CC[C@H]5C[C@@H](O)CC[C@]5(C)C4CC(=O)[C@]3(C)C1C2C (stereo partly drawn) equals 0.982

NC(=O)NCC(N)C(=O)O (stereo not drawn) yielded normalized growth of 0.983

Record C[C@@H]1CC[C@@]2(OC1)O[C@H]1CC3C4CC[C@H]5C[C@@H](O)CC[C@]5(C)C4CC[C@]3(C)[C@H]1[C@@H]2C (stereo partly drawn) , field normalized growth: 0.981
